# PROTOCOL DESCRIPTION: Rat PK study #1 (Compound A PO, methylcellulose vs propylene glycol formulation)
# Assay type: in vivo, Lewis rats
# CONDITION: male, Lewis, rat, plasma, po, 10 mg/kg, Lewis rats, PO 10 mg/kg, 1% methylcellulose formulation, individual animals
EXPERIMENTAL ENDPOINT: AUC(0-t) (ng·h/mL)
Response body: numeric value in ng·h/mL, unit text excluded.

Request: Give the measured AUC(0-t) of Cn1cc(-c2ccccc2)c(-c2cn(C)c(=O)c3[nH]c(-c4cnn(C(F)(F)F)c4)cc23)cc1=O [Compound A] .
Response: 480

* * *

# PROTOCOL DESCRIPTION: Dog PK study #1 (Compound A IV and PO, propylene glycol formulation)
# Assay type: in vivo, beagle dogs
# CONDITION: beagle, dog, plasma, po, 5 mg/kg, oral 5 mg/kg, 0.5 h; individual animals; read-out: Plasma concentration
EXPERIMENTAL ENDPOINT: concentration at 0.5 h (ng/mL)
Response body: numeric value in ng/mL, unit text excluded.

Request: Give the measured concentration at 0.5 h of Cn1cc(-c2ccccc2)c(-c2cn(C)c(=O)c3[nH]c(-c4cnn(C(F)(F)F)c4)cc23)cc1=O [Compound A] .
Response: 147

Data credit: patent US20260217701A1
